# Tested on: HCT-116 colon
# method: NCI-60 one-dose screen, 48 h
# setup conditions: 10 µM unless noted
The panel holds about 83,000 compounds, 20% with a hit somewhere; the sample as a whole holds those more often. The source made the active and inactive calls. Rule for the calls: active = growth percent below 10; inactive = the rest.
Outcomes: active, inactive

CCCCNc1nnc(-c2cc(-c3cc4ccccc4o3)nn2-c2ccccc2)o1 = inactive
COC12CC(=O)C(C(C)=O)=C(O)C1(C)c1c(O)c(C)c(O)c(C(C)=O)c1O2 (stereo not given) = inactive
COc1cc(-c2n[nH]nc2-c2ccc3c(c2)OCCO3)cc(OC)c1OC = active
CN1C(=O)[C@H]2c3c1cccc3[C@@]13NC(=O)O[C@H]1[C@H](CCC3(C)C)C2(C)C = inactive
Cc1nc(Nc2cccnc2)sc1C(=O)/C=C/c1ccc(F)cc1 = active
